Listing: pIC50 of selected molecules
ASSAY_TARGET: human TLR8 (Homo sapiens, UniProt Q9NR97)
Sequence (Q9NR97 27-1041): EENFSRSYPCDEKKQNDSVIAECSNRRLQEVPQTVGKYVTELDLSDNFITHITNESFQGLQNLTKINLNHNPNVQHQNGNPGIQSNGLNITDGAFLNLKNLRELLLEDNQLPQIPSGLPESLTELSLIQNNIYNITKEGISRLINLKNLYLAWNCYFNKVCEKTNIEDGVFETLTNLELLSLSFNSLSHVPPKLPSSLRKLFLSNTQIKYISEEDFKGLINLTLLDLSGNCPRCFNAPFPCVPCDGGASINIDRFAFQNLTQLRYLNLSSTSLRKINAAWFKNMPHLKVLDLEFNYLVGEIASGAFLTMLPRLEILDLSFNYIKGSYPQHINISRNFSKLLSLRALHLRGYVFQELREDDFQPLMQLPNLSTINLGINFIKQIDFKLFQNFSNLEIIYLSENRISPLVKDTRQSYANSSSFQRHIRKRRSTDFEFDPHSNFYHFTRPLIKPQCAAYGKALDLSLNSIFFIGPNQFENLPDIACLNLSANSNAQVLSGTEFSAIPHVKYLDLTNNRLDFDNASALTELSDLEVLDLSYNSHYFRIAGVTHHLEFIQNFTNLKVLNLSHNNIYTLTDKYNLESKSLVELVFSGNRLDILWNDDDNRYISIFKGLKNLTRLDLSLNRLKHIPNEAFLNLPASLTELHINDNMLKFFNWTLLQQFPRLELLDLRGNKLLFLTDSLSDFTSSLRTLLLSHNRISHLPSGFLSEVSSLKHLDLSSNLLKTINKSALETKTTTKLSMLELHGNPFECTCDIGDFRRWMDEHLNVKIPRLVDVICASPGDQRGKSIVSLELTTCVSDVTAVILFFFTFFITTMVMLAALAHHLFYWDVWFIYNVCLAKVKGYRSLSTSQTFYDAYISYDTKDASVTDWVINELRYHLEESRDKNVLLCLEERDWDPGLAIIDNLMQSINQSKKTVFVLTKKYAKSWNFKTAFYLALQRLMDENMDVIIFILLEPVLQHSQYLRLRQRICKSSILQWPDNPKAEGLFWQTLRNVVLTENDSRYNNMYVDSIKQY
ASSAY_NOTES: TLR8 inhibition reporter assay (HEK-Blue SEAP)
EXPERIMENTAL_SETUP: HEK-Blue cells overexpressing human TLR8, R848 15.9 μM, 22 hour incubation
// pIC50 here means minus log10 of the molar concentration (mol/L)

Provide the documented pIC50 with human TLR8 (Homo sapiens, UniProt Q9NR97) as the system for "COc1cc(-c2cc3[nH]c(=O)n([C@H]4CC[C@H](N(CC(C)C)CC(C)C)CC4)c3cc2C(C)C)cn2ncnc12"
8.79

Provide the documented pIC50 with human TLR8 (Homo sapiens, UniProt Q9NR97) as the system for CCc1cc2c(cc1-c1cc(OC)c3ncnn3c1)[nH]c(=O)n2[C@@H]1CCCN(C2CCOC2)C1 (stereo partly shown) [Example 212]
8.36

Provide the documented pIC50 with human TLR8 (Homo sapiens, UniProt Q9NR97) as the system for "CCN1CCC[C@H](n2c(=O)[nH]c3cc(-c4cc(C)c5ncnn5c4)c(C)cc32)C1"
7.03

Provide the documented pIC50 with human TLR8 (Homo sapiens, UniProt Q9NR97) as the system for "COc1cc(-c2cc3[nH]c(=O)n([C@@H]4CCCN(CC(=O)N(C)C)C4)c3cc2C)cn2ncnc12"
6.45

Provide the documented pIC50 with human TLR8 (Homo sapiens, UniProt Q9NR97) as the system for "Cc1cc2c(cc1-c1cc(C)c3ncnn3c1)[nH]c(=O)n2[C@@H]1CCCN(CCC(C)C)C1"
7.78

Provide the documented pIC50 with human TLR8 (Homo sapiens, UniProt Q9NR97) as the system for Cc1c(-c2cc3[nH]c(=O)n(C4CCC(N5CCC(F)(F)CC5)CC4)c3cc2C(C)C)cn2ncnc2c1C (single isomer, unassigned) [Example 275]
9.09

Provide the documented pIC50 with human TLR8 (Homo sapiens, UniProt Q9NR97) as the system for "CCc1cc2c(cc1-c1cc(OC)c3ncnn3c1)[nH]c(=O)n2[C@@H]1CCCN(CC(CC)CC)C1"
8.58
